# tested-target: FGFR1 IIIc (Homo sapiens, UniProt P11362)
# Construct: host or cells: Cos-1
# Sequence (P11362 22-822): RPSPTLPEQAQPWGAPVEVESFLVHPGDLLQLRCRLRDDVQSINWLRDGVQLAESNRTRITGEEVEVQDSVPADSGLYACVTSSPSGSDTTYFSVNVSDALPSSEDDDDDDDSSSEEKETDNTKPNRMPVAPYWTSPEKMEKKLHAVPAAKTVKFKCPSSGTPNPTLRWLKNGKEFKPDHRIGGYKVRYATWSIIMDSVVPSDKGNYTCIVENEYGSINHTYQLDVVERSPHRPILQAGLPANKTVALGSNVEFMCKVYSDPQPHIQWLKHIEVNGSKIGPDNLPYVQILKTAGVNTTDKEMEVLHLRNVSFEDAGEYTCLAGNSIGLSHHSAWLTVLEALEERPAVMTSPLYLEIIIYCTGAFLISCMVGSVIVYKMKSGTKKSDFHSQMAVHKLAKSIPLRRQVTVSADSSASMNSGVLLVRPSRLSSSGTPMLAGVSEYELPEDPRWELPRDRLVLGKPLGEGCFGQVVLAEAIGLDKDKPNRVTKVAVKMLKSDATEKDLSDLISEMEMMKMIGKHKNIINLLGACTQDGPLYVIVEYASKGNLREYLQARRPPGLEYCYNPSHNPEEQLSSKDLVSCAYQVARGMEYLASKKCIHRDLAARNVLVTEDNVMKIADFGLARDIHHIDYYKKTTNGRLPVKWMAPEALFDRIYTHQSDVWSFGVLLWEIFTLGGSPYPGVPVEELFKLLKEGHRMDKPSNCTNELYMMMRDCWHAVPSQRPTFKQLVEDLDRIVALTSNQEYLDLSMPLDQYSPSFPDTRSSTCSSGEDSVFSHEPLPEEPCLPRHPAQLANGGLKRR
# assay-remarks: Cell based inhibition of transiently expressed FGFR1 IIIc phosphorylation (Cos-1 cells)
# reported-conditions: Cos-1 cells, phospho-FGFR1; upper bound of bin; read-out: IC50
pIC50: −log10 of the molar value.
The reader will find reported pIC50 values listed item by item below.

Some solved entries appear below for comparison.
- molecule: "Cc1cc(CNc2nccc(Nc3cc(CCc4cccc(C#N)c4)[nH]n3)n2)on1 [Example 48]"
  pIC50: "> 5.00"
- molecule: "CC(C)Oc1cc(Nc2ccnc(NCc3cc(C4CCC4)no3)n2)n[nH]1 [Example 102]"
  pIC50: "> 6.70"

Next up:
q: Fill in reported pIC50 for this entry: Cc1cc(CNc2nccc(Nc3cc(OC(C)C)[nH]n3)n2)on1 [Example 66]
a: > 6.00
